tested on: Klebsiella 6179; assay: MIC agar dilution test, Klebsiella 6179; type: cell-based; details: agar dilution test/isosensitest agar, unit assumed
measured_parameter: MIC values

# lookup: MIC values of O=C(O)c1cn(C2CC2)c2cc(N3CCNC(c4cccs4)C3)c(F)cc2c1=O (centres unmarked) [Example 12]
0.125 µg/mL

# lookup: MIC values of O=C(O)c1cn(C2CC2)c2c(F)c(N3CCNC(c4ccccc4)C3)c(F)cc2c1=O (centres unmarked) [Example 16]
0.015 µg/mL

# lookup: MIC values of O=C(O)c1cn(C2CC2)c2cc(N3CCNC(c4ccc(F)cc4)C3)c(F)cc2c1=O (centres unmarked) [Example 2]
0.06 µg/mL

# lookup: MIC values of COc1ccc(C2CN(c3cc4c(cc3F)c(=O)c(C(=O)O)cn4C3CC3)CCN2)cc1 (centres unmarked) [Example 5]
0.125 µg/mL

# lookup: MIC values of Br.O=C(O)c1cn(C2CC2)c2cc(N3CCNC(c4ccc(O)cc4)C3)c(F)cc2c1=O (centres unmarked) [Example 14]
0.25 µg/mL

# lookup: MIC values of CCn1cc(C(=O)O)c(=O)c2cc(F)c(N3CCNCC3)cc21 [Norfloxacin, reference compound]
1 µg/mL

# lookup: MIC values of O=C(O)c1cn(C2CC2)c2cc(N3CCNC(c4ccccc4)C3)c(F)cc2c1=O (centres unmarked) [Example 1]
0.015 µg/mL

# lookup: MIC values of O=C(O)c1cn(C2CC2)c2cc(N3CCNC(c4ccc(Cl)cc4)C3)c(F)cc2c1=O (centres unmarked) [Example 3]
0.125 µg/mL

---

Field: MIC values. Provide a value for each of the compounds that follow.
tested on: Klebsiella 8085; assay: MIC agar dilution test, Klebsiella 8085; format: cell-based; settings: agar dilution test/isosensitest agar, unit assumed
Entry rule: numbers only, all in µg/mL.

Form field - read-out: MIC values; system: Klebsiella 8085; submitted item: O=C(O)c1cn(C2CC2)c2cc(N3CCNC(c4ccc(F)cc4)C3)c(F)cc2c1=O (centres unmarked) [Example 2]
0.015

Form field - read-out: MIC values; system: Klebsiella 8085; submitted item: O=C(O)c1cn(C2CC2)c2cc(N3CCNC(c4ccc(Cl)cc4)C3)c(F)cc2c1=O (centres unmarked) [Example 3]
0.03

Form field - read-out: MIC values; system: Klebsiella 8085; submitted item: COc1ccc(C2CN(c3cc4c(cc3F)c(=O)c(C(=O)O)cn4C3CC3)CCN2)cc1 (centres unmarked) [Example 5]
0.03

Form field - read-out: MIC values; system: Klebsiella 8085; submitted item: O=C(O)c1cn(C2CC2)c2cc(N3CCNC(c4ccccc4)C3)c(F)cc2c1=O (centres unmarked) [Example 1]
0.015

Form field - read-out: MIC values; system: Klebsiella 8085; submitted item: Br.O=C(O)c1cn(C2CC2)c2cc(N3CCNC(c4ccc(O)cc4)C3)c(F)cc2c1=O (centres unmarked) [Example 14]
0.03

Form field - read-out: MIC values; system: Klebsiella 8085; submitted item: O=C(O)c1cn(C2CC2)c2cc(N3CCNC(c4cccs4)C3)c(F)cc2c1=O (centres unmarked) [Example 12]
0.015

Form field - read-out: MIC values; system: Klebsiella 8085; submitted item: O=C(O)c1cn(C2CC2)c2c(F)c(N3CCNC(c4ccccc4)C3)c(F)cc2c1=O (centres unmarked) [Example 16]
0.015

Form field - read-out: MIC values; system: Klebsiella 8085; submitted item: CCn1cc(C(=O)O)c(=O)c2cc(F)c(N3CCNCC3)cc21 [Norfloxacin, reference compound]
0.25
